test system: SK-MEL-5 melanoma; test: NCI-60 one-dose screen, 48 h; details: 10 µM unless noted
Compounds without any hit were thinned out: in the full panel of roughly 83,000, 20% have a hit. The source made the active and inactive calls. Rule for the calls: active = growth percent below 10; inactive = the rest.
# output must be one of active, inactive

Tell me the recorded outcome of this test for Cc1cc(C(=O)O)c(C)cc1C(=O)O . inactive

Could you check what this test reported for C[n+]1c2ccccc2c(Nc2ccc(N3CCCCC3)cc2)c2[nH]c3ccccc3c21 ? active

// outcome(item) with item = Nc1ccc(C2=Nc3cccc4cccc(c34)S2)cc1 inactive

Which outcome did this test record for the compound COc1ccc(Nc2ccnc(NCCCNc3ccnc4cc(Cl)ccc34)n2)cc1 ? active

Outcome? c1ccc(N2CCN(c3nncc4ccccc34)CC2)nc1 inactive

# outcome recorded in this test, key = CC(=O)NC1(C(=O)O)CCCC1 inactive

Give the logged outcome of this assay for the following compound: CCCCC1Nc2nc(SC)n(C)c(=O)c2CN(Cc2ccccc2)C1=O (stereo not drawn) inactive

Test call for this compound, please: COc1c(O)cc2oc3cc(O)c(CC=C(C)C)c(O)c3c(=O)c2c1C/C=C(\C)CCC=C(C)C inactive

Hi, do you know how OC(Cc1cccnc1)c1ccccc1 (stereo not drawn) came out in this test? inactive

Record lookup: outcome of this test for O=C1c2ccccc2C(=O)c2c1cccc2-n1nnc2ccccc21 ? inactive

For Cc1ccc(C(O)C2=CC(=O)c3ccccc3C2=O)cc1 (stereo not drawn) , which call appears in the assay record? inactive

GET /call?item= c1cnc2ccc3ncccc3c2c1 returns the recorded outcome of this test. inactive

Field: outcome | Entry: O=C(Nc1ccncc1)C(=O)c1cn(S(=O)(=O)c2cccc(F)c2)c2ccccc12 inactive

Short answer needed: outcome of this test for Cc1cc2cn3c4cccnc4[nH]c(=O)c3c2cc1C ? inactive

Which outcome was entered for the compound COc1ccc(C(=O)Nc2nc(-c3ccc(Cl)cc3)cs2)cc1 in this test? inactive

Assay result, entry Cc1ccc2c(c1)C(=O)/C(=C/c1ncc([N+](=O)[O-])n1C)O2 — outcome? active

Recorded test outcome, item CCOC(=O)C(Cc1ccccc1)(C(=O)OCC)C(Br)C(=O)c1ccccc1 (stereo not drawn) inactive

What was the test verdict on COc1cccc2c1O/C(=C\c1c([N+](=O)[O-])ncn1C)C2=O ? inactive

Just curious, what result did COc1ccc(OC)c(/C=C/c2nc(=S)n(-c3ccc(Cl)cc3)[nH]2)c1 get here? inactive

Give the logged outcome of this assay for the following compound: CCc1[nH]nc(-c2ccc(OC)cc2)c1-c1ccccc1OCCN(CC)CC inactive

So what was the verdict on COc1ccc2nc(-c3ccc(-n4cncc4-c4ccc(OC)c(N)c4)cc3)sc2c1 in this test? inactive

Which outcome was entered for the compound O=C(/C=C/c1cc2ccccc2[nH]c1=O)c1ccc(O)cc1 in this test? inactive

Test call, this compound: CCOC(=O)C(C(C)=O)c1nc2sc3cc(Cl)ccc3n2c(=N)c1C#N (stereo not drawn) inactive

###

system: 786-0 renal; test: NCI-60 one-dose screen, 48 h; conditions: 10 µM unless noted
The panel holds about 83,000 compounds, 20% with a hit somewhere; the sample as a whole holds those more often. Active and inactive are the calls of the source. The calls were made as follows: active = growth percent below 10; inactive = the rest.
Outcomes you can answer with include only these: active, inactive

Given Fc1ccc(-c2nnc(-c3c(-c4ccc(F)cc4)nc4ncccn34)o2)cc1 , state the outcome it received in this test. inactive

Answer briefly: the call reported for O=C1/C(=N/O)CCc2ccccc21 in this assay. inactive

Short answer needed: outcome of this test for OC(CCC(O)(c1ccccc1)c1ccccc1)(c1ccccc1)c1ccccc1 ? inactive

I'd appreciate the recorded outcome for NC(=Nc1ccccc1)SCCCCSC(N)=Nc1ccccc1 from this test. inactive

Could you kindly confirm the outcome this assay logged for Cn1cnc([N+](=O)[O-])c1S(=O)(=O)Oc1ccc(Cl)cc1 ? inactive

Test call for this molecule, please: COC1=CC(c2ccc[nH]2)=N/C1=C\c1[nH]c(C)c(C(=O)CCC(=O)Oc2ccc3c(c2)CCC2C3CC[C@]3(C)C(=O)CC[C@@H]23)c1C (stereo partly drawn) inactive

Tell me the recorded outcome of this test for COC(=O)CCC1=C(C)/C(=C/c2[nH]c(-c3ccc[nH]3)cc2OC)N=C1C . inactive

# fetch the recorded call for Cn1c(N)c(N=O)c(=O)[nH]c1=O here inactive

Call for entry COc1ccc2nc3cc(Cl)ccc3c(Nc3cc(C(C)C)c(O)cc3C)c2c1 : inactive

// param item: CC(CCC(=O)O)(NC(=O)c1ccc([N+](=O)[O-])cc1)C(=O)O (stereo not drawn) ; yields the recorded call inactive

Short answer needed: outcome of this test for CCCc1cc(=O)n2c(C(=O)Nc3ccccc3OC)c(C(=O)Nc3ccc(F)cc3)sc2n1 ? inactive

I would be grateful if you could indicate the recorded call for Cc1ccsc1/C=C/C1=NCCCN1C . inactive

Check the results log: what was the call for CCOC(=O)c1cc(-c2cccnc2)nc2c(Cl)cc(Cl)cc12 ? inactive

# lookup: test call for Cc1ccc(C(=O)Nc2ccc(Cl)cc2C(=O)NCc2ccccc2)cc1 inactive

Could you kindly confirm the outcome this assay logged for O=C(Nc1ccccc1Cl)c1cnc2ccc(C3CCNCC3)cn12 ? inactive

Please indicate how the test categorized COc1ccc(Cn2c(NCCCN(C)C)nc(=O)n(Cc3ccc(F)cc3)c2=O)cc1 . inactive

What outcome does the record of this test show for COc1ccc(C2CC(c3ccc(OC)c(OC)c3)=NN2C(=O)c2cc(OC)c(OC)c(OC)c2)c(OC)c1 (stereo not drawn) ? inactive

How was Cc1c(NCc2nnc3n(Cc4ccccc4)c(=O)c4c5c(sc4n23)CCCC5)c(=O)n(-c2ccccc2)n1C classified in this test? inactive

Write down the call the test reported for this molecule. Item: CCN1C2=C(SC(=S)C1=C1SC(C(=O)OC)=C(C(=O)OC)S1)SC(=Nc1ccc(OC)cc1)C2=O active

Write down the call the test reported for this molecule. Item: CC(=O)NC1(C(=O)O)CCCC1 inactive

Hey, what did the test say about COc1cc(C2C=C(c3ccc(C)cc3)Nc3nc(SC)[nH]c(=O)c32)ccc1Oc1ccnc2cc(Cl)ccc12 (stereo not drawn) ? inactive

Lab log entry: CCC(=O)Nc1ccccc1C#C/C=C\C#Cc1ccccc1C(F)(F)F — outcome as called in the assay? inactive

# outcome recorded in this test, key = COc1ccc2[nH]cc(/C=C3/C(=O)Nc4ccc(Cl)cc43)c2c1 inactive

Short answer needed: outcome of this test for CC/C=C\C=C/C(=O)N/C=C/CC1Cc2cccc(O)c2C(=O)O1 (stereo not drawn) ? inactive

Recorded test outcome, item O=C(CCc1nnc(Cn2ccnc2)o1)c1nc2ccccc2[nH]1 inactive

State the result this test recorded for COc1ccc(OC)c(NC(=O)c2cc3oc4ccccc4c3cc2O)c1 . inactive

Lab log entry: CC(O)c1nc2c(c(=O)n(C)c(=O)n2C)n1C (stereo not drawn) — outcome as called in the assay? inactive

So what was the verdict on Cc1nn(-c2ccccc2)c2c1oc(=O)c1cc(Cl)ccc12 in this test? inactive

Per the records of this test, what outcome belongs to CO[C@H]1/C=C/O[C@@]2(C)Oc3c(C)c(O)c4c(O)c(c(/C=N/N5CCN(C)CC5)c(O)c4c3C2=O)NC(=O)/C(C)=C\C=C\C(C)[C@H](O)[C@@H](C)[C@@H](O)[C@@H](C)[C@@H](OC(C)=O)[C@@H]1C (stereo partly drawn) ? inactive

Recorded call for NC(=O)SCC(=O)Nc1ccccc1-c1ccccc1 ? inactive

For this molecule, state the assay outcome: Oc1[nH]c2ccccc2c1/C=c1/ccc2c(c1)N=C(c1cc(F)cc(F)c1)N=2 inactive

Tell me the assay call for C/C(=N/N=C(N)N)c1ccc(N)cc1 please. inactive

Outcome logged for Cc1cc(NC(=O)Nc2cccc3ccccc23)no1 in this assay: inactive

Can you look up the reported call for N#Cc1cccc(/C=C(/C(=O)c2ccccc2)c2ccccc2)c1 for me? inactive

Hello, I am checking results. What call was entered for NC(=O)NN=C(C1CC1)C1CC1 ? inactive

// outcome(item) with item = COc1ccc2c(c1)nc(N)c1c3ccccc3cn21 inactive

Outcome logged for CCOc1cccc(C2CC(=O)Nc3cc4c(cc32)OCO4)c1 (stereo not drawn) in this assay: inactive

Record lookup: outcome of this test for O=C(NN(C(=O)c1ccccc1)c1cccs1)c1ccccc1 ? inactive

What classification did Nc1cc(Cl)c(S(N)(=O)=O)cc1S(N)(=O)=O end up with in this test? inactive

GET /call?item= O=C1OCCCCCCCCCC#Cc2ccccc21 returns the recorded outcome of this test. inactive

Give the logged outcome of this assay for the following molecule: Cc1cc(C(=O)O)c(C)cc1C(=O)O inactive

Please indicate how the test categorized CCOC(=O)C1=C(COCCN)NC(C)=C(C(=O)OC)C1c1ccccc1Cl (stereo not drawn) . inactive

// outcome(item) with item = N#CCCN(CCO)c1ccccc1 inactive

###

system: ACHN renal; assay: NCI-60 one-dose screen, 48 h (100 = growth as untreated, 0 = no growth, -100 = all killed); conditions: 10 µM unless noted
About 83,000 compounds went through this panel and 20% of them were active in at least one assay; those are over-represented in the sample as a whole.
observation-type: growth (%)
Dear colleague, please return just the value in %, with no unit written.

If you can, please state the reported growth value of O=Nc1ccc(O)c(=O)cc1 . 1.32

# query: growth of entry CCOC(=O)c1c2c(c(C)n1Cc1ccccc1)-c1nc(N)ncc1CC2 92.2

# growth lookup, item COc1ccc(-c2nn(-c3cccc(Cl)c3)cc2C2CC(c3ccccc3)=NN2C(C)=O)cc1 (stereo not given) 15.1

What growth value was documented for this compound, CC[C@@H]1OC(=O)[C@H](C)[C@@H](O[C@H]2C[C@@](C)(OC)[C@@H](O)[C@H](C)O2)[C@H](C)[C@@H](O[C@@H]2O[C@H](C)C[C@H](N(C)C)[C@H]2O)[C@](C)(O)C[C@@H](C)[C@@H]2N[C@@H](COCCOC)O[C@H]([C@H]2C)[C@]1(C)O ? 102

Looking for the measured growth of COc1cc2c(c(OC)c1OC)CCc1cnoc1-2 , can you help? 95.1

Query (compound): COc1ccc2c(c1)nc(N)c1c3cc(OC)c(OC)cc3cn21 ; field requested: growth 46.4

Item COc1cc(C(=O)/C=C/c2cccnc2Nc2ccccc2)cc(OC)c1OC has what recorded growth? -99.2

// returns reported growth for input Cc1nn(-c2ccccc2)c2nc(Cl)c(/C=C/C(=O)c3ccccc3)c(-c3ccccc3)c12 104

Query: growth; subject: CCCCCCC(C)(O)c1ccccc1 (stereo not given) 103

Given COc1ccc(-c2cn(-c3ccccc3)c(-c3ccccc3)n2)cc1OC , state its recorded growth. 64.4

Data request, read-out growth, for COc1ccc(COC(C)=O)cc1 99.1

Would you kindly share the measured growth for CCCCc1nc(Cl)c(CO)n1Cc1ccc(-c2ccccc2-c2nn[nH]n2)cc1 ? 107

May I ask what growth has been recorded for N#Cc1ccc(NC(=O)Nc2ccc(Oc3ccc(NC(=O)Nc4ccc(C#N)cc4)cc3)cc2)cc1 ? 23.1

Returns the measured growth for the input compound. Input: C[n+]1ccc(Nc2ccc(NC(=O)c3ccc(Nc4cc[n+](C)c5ccc(N)cc45)cc3)cc2)cc1 100

Fill in: growth of COc1ccc2c3c(c(OCCCN(C)C)nc2c1)-c1ccc(Cl)cc1C3=O is ___ -75.5

If you can, please state the reported growth value of CCCCn1c(Cc2ccc(Cl)cc2)nc2cc(OC)c(OC)cc2c1=O . 75.8

What does the data say about its growth? Entry: CCOc1cc(C(C)(C)C)ccc1C1=N[C@H](c2ccc(Cl)cc2)[C@H](c2ccc(Cl)cc2)N1C(=O)N1CCN(CC#Cc2cccc3c2CN([C@@H]2CCC(=O)NC2=O)C3=O)CC1 23.6

For the compound COc1cc(OC)c2cc(C(=O)O)c(=O)oc2c1 , what growth is on record? 107

Please look up its growth: CC/C(=C\c1ccc(N(C)C)cc1)c1ccncc1 59.4

// lookup growth for COC1=CC(c2ccc[nH]2)=N/C1=C\c1[nH]c(C)c(C(=O)CCC(=O)Oc2ccc3c(c2)CCC2C3CC[C@]3(C)C(=O)CC[C@@H]23)c1C (stereo not given in full) 62.7

I'd like to know its growth. The compound in question is CC(C)(C)c1ccc(C(O)CCCN2CCC(C(O)(c3ccccc3)c3ccccc3)CC2)cc1 (stereo not given) -88.2

Requested field: growth. Item: Cn1cc(-c2nc(-c3c[nH]c4ncccc34)cs2)c2cccnc21 41.4

Returns the measured growth for the input compound. Input: OCc1nnn(-c2ccccc2)c1CO 107

Value lookup for growth; key = COc1ccc(-c2cnnn2-c2cc(OC)c3c(c2)OCO3)cc1 38.8

Given the entry CN(C)c1ccc(/C=C\c2ccnc3ccccc23)cc1 , report its measured growth. 70.6

For the compound COc1ccc(-c2noc(N)c2-c2cc(OC)c3c(c2)OCO3)cc1 , what growth is on record? 40.8

For CN(C)c1ccc(/C=C(\C#N)c2nc3ccccc3c(=O)[nH]2)cc1 , what is its reported growth? 96.1

Need growth, item CC(=O)NC1(C(=O)O)CCCC1 105

Record request: growth value, item Cc1[nH]n(C(N)=S)c(=O)c1N=Nc1ccc(F)c(Cl)c1 104

Reported growth for CCC1=C(c2ccc(OC)cc2)C(C)Oc2cc(OC(C)=O)ccc21 (stereo not given) : what is it? 88

Given the entry COc1ccc(CCN2CCCN3C2=Nc2ccccc2S3(=O)=O)cc1 , report its measured growth. 51

So what's the measured growth for this one? CC1=C(C(=O)Nc2ccccc2)C(c2ccc3c(c2)OCCO3)NC(=O)N1 (stereo not given) 104

Item under review: O[C@@H]1Cc2ccc3ccccc3c2N[C@H](c2ccoc2)C1 . Reported growth? 103

Name the recorded growth for Cc1cc(NC(=O)Nc2cccc3ccccc23)no1 . 98.4

Dear colleague, I am looking for the recorded growth of the following compound: O=C(Nc1ccc(OCc2nnc(-c3ccccc3)o2)c(F)c1)Nc1ccc(Cl)c(C(F)(F)F)c1 9.47

What does the data say about its growth? Entry: O=C(O)C(=O)O 91.9

Consider the compound shown here: COC(=O)[C@]12CC[C@@H](C)[C@H](C)[C@@H]1C1=CC[C@@H]3[C@@]4(C)C=C(O)C(=O)[C@@]5(C)COC(=C54)C[C@@]3(C)[C@]1(C)CC2 What is its recorded growth? -71.7

# lookup: growth of N#Cc1cnc2cc(OC[C@H](O)CO)c(NC(=O)CC3CSSC3)cc2c1Nc1ccc(OCc2cccc(F)c2)c(Cl)c1 20.8

Looking for the measured growth of O=[N+]([O-])c1ccc(N/N=C/c2c(O)ccc3ccccc23)nc1 , can you help? 15

Reported growth for COc1ccc(Nc2nccc(N3CCN(c4c5ccc(Cl)cc5nc5ccc(OC)cc45)CC3)n2)cc1 : what is it? 57.8

From: PubChem BioAssay (NCI)
